# ASSAY_PROTOCOL: compound effects on hepatocellular carcinoma cell viability – HepG2, calcein-AM fluorescence, 48 h, basal, profiling panel (AID 1164); further: test concentration not given here
# ASSAY_CONTEXT: higher = more signal
Recorded measurements of z-score, one per entry
Lab note: write the figure by itself, no unit.

Determine its reported z-score: C=C(/C(=C/C[C@@H](OC(=O)c1ccncc1)c1ccc(CO)o1)c1cc(C(=O)OC)ccc1OC)C(C)C
0.486

Determine its reported z-score: COC(=O)[C@@]1(Cc2ccc(OC)cc2)[C@H]2c3cc(C(=O)N4CCCC4)n(C[C@H](O)CO)c3C[C@H]2CN1C(=O)c1ccccc1
0.255

Determine its reported z-score: O=C1O[C@H](c2ccccc2)[C@H](c2ccccc2)N2[C@H]1[C@@H](C(=O)NC[C@H](O)c1ccccc1)[C@]1(C(=O)Nc3ccc(C#CC4=CCCCC4)cc31)[C@H]2c1ccc(O)cc1
-1.25

Determine its reported z-score: CCN(CC)c1ccc(N2CC=CC34O[C@@H]5/C=C\CCCOC(=O)C5[C@H]3C(=O)N(CCCO)[C@@H]4C2=O)cc1 (some centres undefined)
0.616

The origin of these recorded values is PubChem BioAssay.
